Values were extracted from ChEMBL document CHEMBL1133865.

test system: MCF7; test: The compound was tested for antiproliferative activity against MCF-7 human breast cancer cells; assay type: functional, cell-based
measurement_type: IC50 (µM)
// units = µM; emit number, no label

Below, 8 molecules whose answers are already recorded.
INSERT INTO assay_data (molecule, test_value) VALUES
  ('COc1ccc(C(=O)/C=C/c2ccccc2)c(O)c1', 26.8),
  ('O=C(/C=C/c1ccccc1)c1ccc(O)c(O)c1O', 22.2),
  ('COc1cc(OC)c2c(c1)OC(c1ccccc1)CC2=O (configuration not stated)', 36),
  ('O=C(/C=C/c1ccccc1)c1ccccc1O [2''-HYDROXYCHALCONE]', 28.4),
  ('COc1cccc(O)c1C(=O)/C=C/c1ccccc1', 18.3),
  ('O=C(/C=C/c1ccccc1)c1ccc(O)cc1O [2'',4''-DIHYDROXYCHALCONE]', 16.3),
  ('COc1cc(O)c(C(=O)/C=C/c2ccccc2)c(OC)c1', 20),
  ('COc1ccc(O)c(C(=O)/C=C/c2ccccc2)c1', 29.2);

Q) Please report the measured IC50 for COc1ccc2c(c1)OC(c1ccccc1)CC2=O (configuration not stated)
A) 35.7

Q) Please report the measured IC50 for O=c1cc(-c2ccccc2)oc2c(O)c(O)ccc12 [7,8-DIHYDROXYFLAVONE]
A) 27.5

Q) Please report the measured IC50 for COc1cccc2c1C(=O)CC(c1ccccc1)O2 (configuration not stated)
A) 35.7
